Target: Single-strand selective monofunctional uracil DNA glycosylase (Homo sapiens) (UniProt Q53HV7);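 also: enzymatic SMUG1 assay coupled with APE1, reading fluorescence at 594 nm released when a quenched double-stranded DNA oligonucleotide substrate is cleaved and separated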
Sequence (Q53HV7 whole entry): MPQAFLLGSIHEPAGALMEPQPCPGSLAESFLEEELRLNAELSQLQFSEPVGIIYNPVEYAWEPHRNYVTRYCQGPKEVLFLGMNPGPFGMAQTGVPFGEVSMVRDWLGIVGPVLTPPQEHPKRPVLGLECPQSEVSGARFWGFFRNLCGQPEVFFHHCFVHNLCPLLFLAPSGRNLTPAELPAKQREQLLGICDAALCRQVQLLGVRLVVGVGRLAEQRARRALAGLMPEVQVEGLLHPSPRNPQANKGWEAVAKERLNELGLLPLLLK
Settings: Compound Concentration 10.0 uM, Hit No
Description: Inhibition of SMUG1 by quantifying inhibition of SMUG1-mediated cleavage and dissociation of quenched duplex DNA oligonucleotides, measured as fluorescence at 594 nm. To generate a functional strand incision and increase turn-over this assay is coupled to APE1.
Let's look at some compounds and their measured inhibition.
Numeric only. Scale: %

Fill in the blank: the reported inhibition of c1ccc2nc(N3CCNCC3)ccc2c1 is ____.
2.02

Further cases:
Fill in the blank: the reported inhibition of Oc1ccc2c3c1O[C@H]1c4[nH]c5c(c4C[C@@]4(O)[C@@H](C2)N(CC2CC2)CC[C@]314)C[C@@]1(O)[C@H]2Cc3ccc(O)c4c3[C@@]1(CCN2CC1CC1)[C@H]5O4 is ____.
-7.06

Fill in the blank: the reported inhibition of O=c1ccc2ccc(OCCCCN3CCN(c4cccc5sccc45)CC3)cc2[nH]1 is ____.
-9.19

Fill in the blank: the reported inhibition of C[C@H]1[C@H]2CC[C@H]3[C@@H]4CC=C5C[C@@H](N(C)C)CC[C@]5(C)[C@H]4CC[C@]23CN1C is ____.
4.86

Fill in the blank: the reported inhibition of C[C@H](CO)Nc1nc(SCc2cccc(Cl)c2F)nc2[nH]c(=O)sc12 is ____.
6.22

Fill in the blank: the reported inhibition of O=c1[nH]c2ccccc2n1CCCN1CCN(C(c2ccccc2)c2ccccc2)CC1 is ____.
20.2

Fill in the blank: the reported inhibition of CC1(C)CN2C(CS/C(=N\C3CCCCC3)NC3CCCCC3)=CSC2=N1 is ____.
-4.87

Fill in the blank: the reported inhibition of CC(C)(C)NCC(O)COc1cccc2[nH]c(=O)[nH]c12 (centres undefined) is ____.
12.3

Fill in the blank: the reported inhibition of CCC(C)N(C)C(=O)c1cc2ccccc2c(-c2ccccc2Cl)n1 (centres undefined) is ____.
22.8
